target_of_assay: UniProt:P10635
Sequence (P10635 whole entry): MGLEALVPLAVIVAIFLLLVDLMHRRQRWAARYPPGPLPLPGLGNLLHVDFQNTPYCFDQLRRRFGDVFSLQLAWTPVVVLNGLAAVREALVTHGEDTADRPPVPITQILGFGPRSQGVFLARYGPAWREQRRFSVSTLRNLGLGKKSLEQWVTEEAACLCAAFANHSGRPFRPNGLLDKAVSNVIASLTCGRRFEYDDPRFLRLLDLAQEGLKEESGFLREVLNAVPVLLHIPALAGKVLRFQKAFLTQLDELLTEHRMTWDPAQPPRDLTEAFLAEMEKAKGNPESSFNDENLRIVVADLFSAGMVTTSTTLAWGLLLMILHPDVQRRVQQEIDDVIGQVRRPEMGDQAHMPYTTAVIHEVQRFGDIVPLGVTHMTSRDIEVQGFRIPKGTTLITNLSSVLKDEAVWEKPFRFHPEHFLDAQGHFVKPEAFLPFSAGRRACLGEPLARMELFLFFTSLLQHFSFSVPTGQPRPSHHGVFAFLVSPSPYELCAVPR
assay_method_text: CYP panel profile: P450 inhibition, CYP-2D6
Format: in vitro ADME
experimental_setup: human liver microsomes
assay_metric: pIC50
# reply with the number alone; pIC50 is -log10 of concentration in mol/L

1) O=C(c1ccc(F)c(F)c1)n1c(-c2ccc(-c3ccccc3)cc2)nc2ccc(Cl)cc21 5.09

Moving on to the next compound.
Param item = O=C(c1c(F)cc(Br)cc1F)n1c(-c2cccc3ccccc23)nc2cc(Cl)ccc21 ; retrieve measured pIC50.
4.84

###

assay_method_text: Liver microsomal stability, human
experimental_setup: human, liver microsomes, pH 7.4
assay_metric: microsomal CLint at 1 μM (µL/min/mg)
Report the value in µL/min/mg with no unit label.

compound	value_unit	microsomal CLint at 1 μM
O=S(=O)(c1ccc(C(F)(F)F)cc1)n1c(-c2cccc3ccccc23)nc2cc(Cl)ccc21	µL/min/mg	56.3
O=C(c1cccc(Cl)c1Cl)c1c[nH]c2ccc(Cl)cc12	µL/min/mg	61.2
CN(C)c1ccc(C(=O)c2c[nH]c3ccc(Cl)cc23)cc1	µL/min/mg	32.7
O=C(c1ccc(Cl)cc1Cl)c1c[nH]c2ccc(Cl)cc12	µL/min/mg	39.4
Clc1ccc2[nH]c(-c3cccc4ccccc34)cc2c1	µL/min/mg	98.5
O=C(c1cccc2ccccc12)C1CN(C(=O)c2ccccc2)c2ccc(Cl)cc21 (centres unmarked)	µL/min/mg	34
O=C(C1CC1)n1c(-c2cccc3ccccc23)cc2cc(Cl)ccc21	µL/min/mg	18.5
O=S(=O)(c1ccc2ccccc2c1)n1c(-c2cccc3ccccc23)nc2ccc(Cl)cc21	µL/min/mg	86.2
COc1ccc(C(=O)c2c[nH]c3ccc(Cl)cc23)cc1	µL/min/mg	30.6
O=C(c1ccccc1)c1c[nH]c2ccc(Cl)cc12	µL/min/mg	90.7

# input compound: CCc1ccc(S(=O)(=O)n2c(-c3cccc4ccccc34)nc3ccc(Cl)cc32)cc1 ; wanted: its microsomal CLint at 1 μM
84.6

Try this compound too: O=C(C1CC1)n1c(-c2cccc3ccccc23)nc2ccc(Cl)cc21
38.2

# iterate: O=C(c1ccc(F)c(F)c1)n1c(-c2cccc3ccccc23)cc2cc(Cl)ccc21
83.1

###

target_of_assay: aryl hydrocarbon receptor (AhR) (Mus musculus (Mouse), UniProt P30561)
Sequence (P30561 10-805): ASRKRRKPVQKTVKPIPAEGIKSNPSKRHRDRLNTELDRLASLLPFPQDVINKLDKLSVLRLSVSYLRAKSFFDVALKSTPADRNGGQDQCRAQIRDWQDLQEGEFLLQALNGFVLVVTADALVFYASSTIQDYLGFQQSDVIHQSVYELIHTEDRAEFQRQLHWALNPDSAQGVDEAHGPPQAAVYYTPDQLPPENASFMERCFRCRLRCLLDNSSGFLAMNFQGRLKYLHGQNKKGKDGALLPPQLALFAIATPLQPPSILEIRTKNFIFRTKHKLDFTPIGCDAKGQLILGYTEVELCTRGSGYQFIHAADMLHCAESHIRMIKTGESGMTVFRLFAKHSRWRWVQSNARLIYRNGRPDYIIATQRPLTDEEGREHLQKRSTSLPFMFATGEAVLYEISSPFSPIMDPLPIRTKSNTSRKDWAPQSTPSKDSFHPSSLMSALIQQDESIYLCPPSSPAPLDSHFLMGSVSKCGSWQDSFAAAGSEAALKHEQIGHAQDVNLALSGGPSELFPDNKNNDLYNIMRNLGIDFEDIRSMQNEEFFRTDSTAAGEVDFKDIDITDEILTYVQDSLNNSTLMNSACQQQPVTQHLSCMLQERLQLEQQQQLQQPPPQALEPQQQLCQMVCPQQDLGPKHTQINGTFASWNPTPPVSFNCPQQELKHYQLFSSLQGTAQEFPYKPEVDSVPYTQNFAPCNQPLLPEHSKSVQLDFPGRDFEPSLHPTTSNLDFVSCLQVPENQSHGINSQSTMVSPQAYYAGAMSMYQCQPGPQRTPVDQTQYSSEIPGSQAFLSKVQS
Sequence (P53762 whole entry partner): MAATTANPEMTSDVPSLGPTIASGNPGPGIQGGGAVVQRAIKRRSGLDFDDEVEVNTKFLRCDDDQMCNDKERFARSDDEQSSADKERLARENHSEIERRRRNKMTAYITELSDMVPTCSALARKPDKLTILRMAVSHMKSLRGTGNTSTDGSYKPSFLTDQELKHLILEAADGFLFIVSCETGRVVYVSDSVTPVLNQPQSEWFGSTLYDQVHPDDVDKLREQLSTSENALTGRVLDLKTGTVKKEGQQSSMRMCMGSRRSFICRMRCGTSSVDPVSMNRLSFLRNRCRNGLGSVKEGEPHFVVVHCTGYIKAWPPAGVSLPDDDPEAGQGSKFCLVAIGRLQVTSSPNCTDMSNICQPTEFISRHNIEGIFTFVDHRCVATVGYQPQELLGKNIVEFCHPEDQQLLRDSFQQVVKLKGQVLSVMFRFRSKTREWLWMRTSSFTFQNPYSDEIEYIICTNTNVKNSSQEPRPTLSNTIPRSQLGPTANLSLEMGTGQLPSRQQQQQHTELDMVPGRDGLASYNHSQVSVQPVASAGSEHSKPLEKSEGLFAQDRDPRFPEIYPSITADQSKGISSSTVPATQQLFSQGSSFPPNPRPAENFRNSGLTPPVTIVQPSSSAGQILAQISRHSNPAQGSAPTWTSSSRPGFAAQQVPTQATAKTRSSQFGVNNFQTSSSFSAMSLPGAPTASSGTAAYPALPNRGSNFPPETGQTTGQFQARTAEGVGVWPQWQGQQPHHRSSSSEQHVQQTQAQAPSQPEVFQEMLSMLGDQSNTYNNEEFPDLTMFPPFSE
assay_method_text: AhR ligand screening: AhRE-luciferase reporter in transfected Hepa1 cells
Type: cell-based
experimental_setup: fold change of luciferase expression at 100 nM test compound relative to vehicle (0.1% DMSO)
// Not fulfilled strictly below 2 fold in Fold @ 100 nM; Fulfilled otherwise

compound	category
COc1ccccc1S(=O)(=O)n1c(-c2cccc3ccccc23)nc2ccc(C(=O)N3CCCCC3)cc21 [Compound 1391]	Not fulfilled

Now, please, on to the next compound.
Given COc1ccc(C(=O)c2c[nH]c3ccc(Cl)cc23)cc1 [Compound 894] , state whether its Fold @ 100 nM is at least 2 fold.
Not fulfilled

###

target_of_assay: aryl hydrocarbon receptor (AhR) (Mus musculus (Mouse), UniProt P30561)
assay_method_text: AhR ligand screening: AhRE-luciferase reporter in transfected Hepa1 cells
Type: cell-based
experimental_setup: luciferase expression at 100 nM test compound relative to 100 nM benchmark compound 11-cl-BBQ
Response field class: enum, chosen by comparing Fold relative to benchmark @ 100 nM against bucket 1: < 0.05 fold; bucket 2: ≥ 0.05 fold and < 0.1 fold; bucket 3: ≥ 0.1 fold

Worked examples, 2 molecules total:
molecule	category
CCc1ccc(S(=O)(=O)n2c(-c3cccc4ccccc34)nc3cc(Cl)ccc32)cc1 [Compound 775]	bucket 3
O=C(c1ccccc1)n1c(-c2cccc3c2CCCC3)nc2cc(Cl)ccc21 [Compound 777]	bucket 2

Turning to the following molecule.
Any idea which band O=C(c1ccccc1)n1c(-c2ccc(F)c(Cl)c2)nc2cc(Cl)ccc21 [Compound 582] is in?
bucket 2

###

target_of_assay: UniProtKB P30561
assay_method_text: AhR ligand screening: AhRE-luciferase reporter in transfected Hepa1 cells
Assay type: cell-based
experimental_setup: fold change of luciferase expression at 100 nM test compound relative to vehicle (0.1% DMSO)
Known Fold @ 100 nM of a selection of molecules
Numeric answer only, unit fold assumed.

molecule	target_of_assay	assay_metric	value_unit	observed_value
O=C(c1ccc(F)c(F)c1)n1c(-c2csc3ccccc23)nc2cc(Cl)ccc21 [Compound 861]	UniProtKB P30561	Fold @ 100 nM	fold	2
O=C(c1ccncc1)n1c(-c2ccccc2)nc2cc(Cl)ccc21 [Compound 432]	UniProtKB P30561	Fold @ 100 nM	fold	1
O=C(c1c[nH]c2ccc(Cl)cc12)C1CCCCC1 [Compound 895]	UniProtKB P30561	Fold @ 100 nM	fold	1
O=C(c1ccc(F)c(F)c1)n1c(-c2c3ccccc3cc3ccccc23)nc2cc(Cl)ccc21 [Compound 641]	UniProtKB P30561	Fold @ 100 nM	fold	1
O=C(c1c(F)cc(Br)cc1F)n1c(-c2cccc3ccccc23)nc2cc(Cl)ccc21 [Compound 638]	UniProtKB P30561	Fold @ 100 nM	fold	12

Requested field: Fold @ 100 nM. Item: O=C(c1cccc2ccccc12)n1ccc2cc(Cl)ccc21 [Compound 366]
1

Now consider O=C(c1ccc2nc(-c3cccc4ccccc34)n(Cc3ccc(SC(F)(F)F)cc3)c2c1)N1CCCCC1 [Compound 1412] .
1

Now this one: Cc1ccc(S(=O)(=O)n2c(-c3cccc4ccccc34)nc3cc(F)ccc32)cc1 [Compound 631]
1

###

target_of_assay: aryl hydrocarbon receptor (AhR) (Mus musculus (Mouse), UniProt P30561)
assay_method_text: AhR ligand screening: AhRE-luciferase reporter in transfected Hepa1 cells
Type: cell-based
experimental_setup: fold change of luciferase expression at 10 uM test compound relative to vehicle (0.1% DMSO)
Decide using Fold @ 10 uM alone. Strictly below 7 fold: class 1. Equal to or above 7 fold: class 0.

1) Clc1ccc2c(c1)nc(-c1cccc3ccccc13)n2Cc1ccncc1 class 0
2) COC(=O)c1ccc2nc(-c3cccc4ccccc34)n(C(=O)c3ccc(F)c(F)c3)c2c1 class 1
3) O=C(c1ccc2c(c1)nc(-c1cccc3ccccc13)n2Cc1ccc(F)c(F)c1)N1CCOCC1 class 1
4) COc1ccccc1S(=O)(=O)n1c(-c2cccc3ccccc23)nc2ccc(C(=O)N3CCCCC3)cc21 class 1
5) O=C(c1cccc2ccccc12)c1c[nH]c2cc(Cl)c(Cl)cc12 class 0

Decide: Fold @ 10 uM of COC(=O)c1ccc2c(c1)nc(-c1cccc3ccccc13)n2C(=O)c1ccc(F)c(F)c1 strictly below 7 fold?
class 1

Next compound: COC(=O)c1ccc2c(c1)nc(-c1cccc3ccccc13)n2Cc1ccc(Cl)cc1
class 1

###

target_of_assay: UniProt:P33261
Sequence (P33261 whole entry): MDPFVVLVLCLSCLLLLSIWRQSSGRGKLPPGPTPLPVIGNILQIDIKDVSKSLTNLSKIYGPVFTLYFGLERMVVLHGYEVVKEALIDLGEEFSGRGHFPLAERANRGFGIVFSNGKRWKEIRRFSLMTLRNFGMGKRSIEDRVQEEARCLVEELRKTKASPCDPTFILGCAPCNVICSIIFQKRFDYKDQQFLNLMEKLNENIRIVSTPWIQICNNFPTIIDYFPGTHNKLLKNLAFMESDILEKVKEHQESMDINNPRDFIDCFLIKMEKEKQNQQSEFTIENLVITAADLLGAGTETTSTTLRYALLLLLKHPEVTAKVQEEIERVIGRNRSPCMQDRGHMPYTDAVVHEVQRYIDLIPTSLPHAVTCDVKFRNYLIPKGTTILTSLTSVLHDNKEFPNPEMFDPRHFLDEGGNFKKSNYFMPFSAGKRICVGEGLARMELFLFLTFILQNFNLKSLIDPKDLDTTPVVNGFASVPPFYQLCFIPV
assay_method_text: CYP panel profile: P450 inhibition, CYP-2C19
Format: in vitro ADME
experimental_setup: human liver microsomes
assay_metric: IC50 (nM)
Expressed in nM, but write only the number.

Solved entries:
compound	assay_metric	observed_value
COc1ccc(C(=O)n2c(-c3cccc4ccccc34)nc3ccc(Cl)cc32)cc1	IC50	2600
O=C(c1ccc(F)c(F)c1)n1c(-c2cccc3ccccc23)cc2cc(Cl)ccc21	IC50	23100
O=C(c1ccccc1)n1c(-c2cccc3ccccc23)nc2ccc(Cl)cc21	IC50	1400
O=C(c1ccc(F)cc1)n1c(-c2cccc3ccccc23)nc2ccc(Cl)cc21	IC50	6700
O=C(c1c(F)cc(Br)cc1F)n1c(-c2cccc3ccccc23)nc2cc(Cl)ccc21	IC50	3400
O=C(c1ccccc1)n1c(-c2cccc3ccccc23)nc2cc(OC(F)(F)F)ccc21	IC50	500
COC(=O)c1ccc2nc(-c3cccc4ccccc34)n(C(=O)c3ccc(F)c(F)c3)c2c1	IC50	1500

# ---- query compound ----
Look up IC50 for this compound: O=C(c1ccc(F)c(F)c1)n1c(-c2cccc3ccccc23)nc2cc(Cl)ccc21 [Compound 530]
3400

###

assay_method_text: Liver microsomal stability, human
experimental_setup: human, liver microsomes, pH 7.4
assay_metric: half-life at 1 μM (min)
Write it as a number; the unit min goes unstated.

Field: example entries. Status: answers known.
compound	half-life at 1 μM, min
O=S(=O)(c1ccc(C(F)(F)F)cc1)n1c(-c2cccc3ccccc23)nc2ccc(Cl)cc21 [Compound 782]	50.5
O=C(c1ccc(SC(F)(F)F)cc1)c1c[nH]c2ccc(Cl)cc12 [Compound 884]	98.8
CCc1ccc(S(=O)(=O)n2c(-c3cccc4ccccc34)nc3ccc(Cl)cc32)cc1 [Compound 776]	16.4
O=C(c1cccc2ccccc12)C1CN(C(=O)c2ccccc2)c2ccc(Cl)cc21 (centres unmarked) [Compound 521]	40.3
O=C(c1ccc(F)c(F)c1)n1c(-c2ccc(-c3ccccc3)cc2)nc2ccc(Cl)cc21 [Compound 644]	77.9
O=S(=O)(c1ccc2ccccc2c1)n1c(-c2cccc3ccccc23)nc2ccc(Cl)cc21 [Compound 786]	16.1
O=C(c1ccc(F)c(F)c1)n1c(-c2cccc3ccccc23)cc2cc(Cl)ccc21 [Compound 973]	16.7

Need half-life at 1 μM, item O=S(=O)(c1ccc(C(F)(F)F)cc1)n1c(-c2cccc3ccccc23)nc2cc(Cl)ccc21 [Compound 781]
24.6

Taken from patent US12473262B2.
